target: T1, Rluc-ADGRG2-ΔGPS-β V762A (mouse, UniProt Q8CJ12-3 38-995, V762A); test: FRET or BRET; HEK293 cells transfected with Rluc-ADGRG2-ΔGPS-β WT or mutants, stimulated by increasing concentrations of FITC-conjugated VPM-p15; saturation curves fitted with GraphPad; each experiment repeated 6 times; settings: one partner purified
T1 construct: ADGRG2 (GPR64), mouse, ADGRG2-ΔGPS-β: the entire ECD removed; source: HEK293, transfected, on cells; not shown: Rluc, N-terminal, kept
T1 sequence (Q8CJ12 other isoform, or with tags, fused parts or gaps V762A | V762A | V762A V762A): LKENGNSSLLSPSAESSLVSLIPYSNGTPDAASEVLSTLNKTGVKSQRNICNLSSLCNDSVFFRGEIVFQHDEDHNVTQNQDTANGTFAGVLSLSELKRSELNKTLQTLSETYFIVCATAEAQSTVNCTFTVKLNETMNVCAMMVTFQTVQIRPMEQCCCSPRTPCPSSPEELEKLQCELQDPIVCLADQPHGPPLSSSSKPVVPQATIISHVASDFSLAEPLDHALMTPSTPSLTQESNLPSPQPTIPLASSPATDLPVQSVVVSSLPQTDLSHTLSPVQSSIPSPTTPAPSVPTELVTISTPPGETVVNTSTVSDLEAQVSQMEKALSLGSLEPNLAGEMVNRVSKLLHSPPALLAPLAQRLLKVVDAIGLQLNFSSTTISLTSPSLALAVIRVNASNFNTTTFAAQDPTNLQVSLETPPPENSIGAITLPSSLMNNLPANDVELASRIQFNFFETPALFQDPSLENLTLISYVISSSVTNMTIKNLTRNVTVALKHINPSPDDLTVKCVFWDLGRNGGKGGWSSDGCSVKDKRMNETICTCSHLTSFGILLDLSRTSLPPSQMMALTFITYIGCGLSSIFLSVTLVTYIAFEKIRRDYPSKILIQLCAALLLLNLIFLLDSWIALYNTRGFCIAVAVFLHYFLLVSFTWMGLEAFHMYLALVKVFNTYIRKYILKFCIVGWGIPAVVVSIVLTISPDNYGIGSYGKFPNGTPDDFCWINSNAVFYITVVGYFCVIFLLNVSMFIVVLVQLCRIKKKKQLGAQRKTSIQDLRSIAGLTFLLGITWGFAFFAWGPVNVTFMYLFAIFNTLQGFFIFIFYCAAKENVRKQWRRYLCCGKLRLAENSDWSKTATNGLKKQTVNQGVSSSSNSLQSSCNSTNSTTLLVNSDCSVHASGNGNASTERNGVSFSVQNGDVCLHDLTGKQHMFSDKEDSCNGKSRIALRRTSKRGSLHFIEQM
Non-standard residues stand in square brackets, D forms with d. Primed or numbered codes have the meaning given here. No end group written: not given here. Phe(4-Me) = Cc1ccc(C[C@H](N)C(=O)O)cc1; FITC′ = not defined here
metric_name: pEC50
Entry type: numeric. Quantity: pEC50, the -log10 of concentration in molar units.

What measured pEC50 goes with VS[Phe(4-Me)]GILLDLSRTSLP-{FITC′} [FITC-conjugated VPM-p15 (ADGRG2 Stachel peptide p15 T1V/F3Phe(4-Me))] ?
5.93

Reference for the values: paper PMC7948503
